measurement.target: system Xc^− (Homo sapiens, UniProt Q9UPY5)
Sequence (Q9UPY5 whole entry): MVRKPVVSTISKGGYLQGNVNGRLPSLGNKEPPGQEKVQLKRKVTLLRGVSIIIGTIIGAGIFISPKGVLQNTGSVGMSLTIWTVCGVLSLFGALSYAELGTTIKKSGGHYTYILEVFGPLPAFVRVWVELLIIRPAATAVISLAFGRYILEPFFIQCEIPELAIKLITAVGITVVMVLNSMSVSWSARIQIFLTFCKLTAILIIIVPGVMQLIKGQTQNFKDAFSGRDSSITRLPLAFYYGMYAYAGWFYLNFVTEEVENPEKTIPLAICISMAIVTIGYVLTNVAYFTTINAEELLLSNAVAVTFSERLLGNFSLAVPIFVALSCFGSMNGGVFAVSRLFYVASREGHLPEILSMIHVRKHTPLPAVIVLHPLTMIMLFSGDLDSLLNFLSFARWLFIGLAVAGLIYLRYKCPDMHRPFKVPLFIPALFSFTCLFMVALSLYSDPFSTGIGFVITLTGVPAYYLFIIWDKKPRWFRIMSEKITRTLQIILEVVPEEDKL
Sequence (P08195 102-630 partner): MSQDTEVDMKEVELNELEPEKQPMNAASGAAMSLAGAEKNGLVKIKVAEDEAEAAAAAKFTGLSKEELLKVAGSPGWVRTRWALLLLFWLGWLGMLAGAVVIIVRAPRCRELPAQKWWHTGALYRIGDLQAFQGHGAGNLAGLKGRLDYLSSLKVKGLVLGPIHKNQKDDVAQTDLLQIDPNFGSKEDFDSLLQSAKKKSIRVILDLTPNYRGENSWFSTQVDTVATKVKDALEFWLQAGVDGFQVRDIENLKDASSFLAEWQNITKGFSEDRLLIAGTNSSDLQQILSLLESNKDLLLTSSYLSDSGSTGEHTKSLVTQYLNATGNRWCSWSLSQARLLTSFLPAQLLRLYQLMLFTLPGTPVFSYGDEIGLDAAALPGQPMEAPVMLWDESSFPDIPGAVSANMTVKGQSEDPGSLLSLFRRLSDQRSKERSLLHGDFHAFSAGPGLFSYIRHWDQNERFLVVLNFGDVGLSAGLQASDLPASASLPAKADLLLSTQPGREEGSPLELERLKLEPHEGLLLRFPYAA
test.method.notes: [^14C]L-Cystine uptake assay
Assay type: cell-based
Parameters: endogenous in cells; host or cells: H4 cells
assay.context: H4 cells, sodium-free HEPES buffer, 0.5 μM L-[14C]Cystine and 4.5 μM L-Cystine, 1 hour at 37° C.; read-out: pIC50 [^14C] L-Cystine uptake assay (converted)
readout.kind: IC50

For the compound "Cc1cc2c(c(F)n1)-c1cccnc1[C@@H](C)C(=O)N2CC(=O)Nc1ccc(F)c(Cl)c1" , give its measured IC50 value.
15.8 to 39.8 nM

For the compound O=C(CN1C(=O)C(CO)c2ncccc2-c2c(F)cc(F)cc21)Nc1ccc(Cl)c(F)c1 (single isomer, unassigned) , give its measured IC50 value.
100 to 501 nM

For the compound "Cc1cc2c(nc1C)-c1ccccc1CC(=O)N2CC(=O)Nc1ccc(C(F)(F)F)cc1" , give its measured IC50 value.
15.8 to 39.8 nM

For the compound "CCOc1nc(C)cc2c1-c1cccnc1CC(=O)N2CC(=O)Nc1ccc(C(F)(F)F)cc1" , give its measured IC50 value.
39.8 to 100 nM

For the compound CC1C(=O)N(CC(=O)Nc2ccc(C(F)F)cc2)c2cc(Cl)nc(Cl)c2-c2cccnc21 (centres unmarked) , give its measured IC50 value.
39.8 to 100 nM

For the compound "O=C(CN1C(=O)Cn2nccc2-c2cnc(Cl)cc21)Nc1ccc(C(F)(F)F)cc1" , give its measured IC50 value.
100 to 501 nM

For the compound "Cc1cc2c(c(F)n1)-c1cccnc1[C@@H](C)C(=O)N2CC(=O)Nc1ccc(C(F)(F)F)cc1F" , give its measured IC50 value.
39.8 to 100 nM

For the compound "O=C(CN1C(=O)Cc2ccccc2-c2c1cc(C(F)F)nc2Cl)Nc1ccc(C(F)F)cc1" , give its measured IC50 value.
< 15.8 nM

For the compound CC1C(=O)N(CC(=O)Nc2ccc(C(F)F)cc2)c2cc(N3C[C@H]4C[C@@H](C3)C4(F)F)nc(F)c2-c2cccnc21 (single isomer, unassigned) , give its measured IC50 value.
15.8 to 39.8 nM

For the compound Cc1cc2c(c(Cl)n1)-c1cccnc1C(O)C(=O)N2CC(=O)Nc1ccc(C(F)(F)F)cc1 (centres unmarked) , give its measured IC50 value.
< 15.8 nM

For the compound CC1C(=O)N(CC(=O)Nc2ccc(C(F)F)cc2)c2cc(C(F)F)c(=O)n(C)c2-c2ccccc21 (single isomer, unassigned) , give its measured IC50 value.
15.8 to 39.8 nM

For the compound COc1cnc2c(c1)-c1cnc(C)cc1N(CC(=O)Nc1ccc(Cl)c(F)c1)C(=O)C2C (single isomer, unassigned) , give its measured IC50 value.
< 15.8 nM

For the compound Cc1cc2c(c(=O)n1C)-c1sccc1C(C)C(=O)N2CC(=O)Nc1ccc(C(F)F)cc1 (centres unmarked) , give its measured IC50 value.
< 15.8 nM

For the compound Cc1cc2c(c(Cl)n1)-c1cc(F)cnc1C(C)C(=O)N2CC(=O)Nc1ccc(C(F)(F)F)cn1 (single isomer, unassigned) , give its measured IC50 value.
15.8 to 39.8 nM

For the compound CC1C(=O)N(CC(=O)Nc2ccc(C(F)F)cc2)c2cc(N3CC4(C3)CC(F)(F)C4)nc(F)c2-c2cccnc21 (single isomer, unassigned) , give its measured IC50 value.
39.8 to 100 nM

For the compound Cc1cc2c(c(F)n1)-c1cccnc1C(C)C(=O)N2CC(=O)Nc1ccc(C)c(F)c1 (centres unmarked) , give its measured IC50 value.
< 15.8 nM

For the compound "Cc1cc2c(c(F)n1)-c1cccc(CO)c1CC(=O)N2CC(=O)Nc1ccc(C(F)(F)F)cc1" , give its measured IC50 value.
100 to 501 nM

Data origin, for the record: patent US20260217708A1
